Assay details: compounds altering in vitro BBB leakiness – cell-based, FITC-avidin fluorescence, HTS, primary screen (AID 1963498); note: test concentration not given here
Study conditions: brain endothelial barrier, actives lie on both sides
Exercise: state measured fold change permeability for each of the molecules provided.
Just the number, please, no unit after it.

Value of measured fold change permeability for the entry "NC(N)=S" : 1.3

# fold change permeability of "Fc1ccc([C@@H]2CCNC[C@H]2COc2ccc3c(c2)OCO3)cc1" = 1.2

Memo: "N[C@@H](Cc1ccc(F)cc1)C(=O)O" , reported fold change permeability: 0.8

Input "C/C(=C\c1ccc(C(=O)O)cc1)c1ccc2c(c1)C(C)(C)CCC2(C)C" . Output fold change permeability: 1.7

Item: CC(C)(C)NCC(O)c1ccc(O)c(CO)c1 (configuration not stated) | fold change permeability: 0.9

Recorded fold change permeability (molecule "O=C(O)c1cc2cc(F)ccc2[nH]1" ): 1.2

# molecule "c1ccc([C@H]2CN3CCSC3=N2)cc1" ; its fold change permeability = 1.5
